# Target Entity: NAMPT (human, recombinant, C-terminally His-tagged) (Homo sapiens)
# Sequence (P43490 whole entry): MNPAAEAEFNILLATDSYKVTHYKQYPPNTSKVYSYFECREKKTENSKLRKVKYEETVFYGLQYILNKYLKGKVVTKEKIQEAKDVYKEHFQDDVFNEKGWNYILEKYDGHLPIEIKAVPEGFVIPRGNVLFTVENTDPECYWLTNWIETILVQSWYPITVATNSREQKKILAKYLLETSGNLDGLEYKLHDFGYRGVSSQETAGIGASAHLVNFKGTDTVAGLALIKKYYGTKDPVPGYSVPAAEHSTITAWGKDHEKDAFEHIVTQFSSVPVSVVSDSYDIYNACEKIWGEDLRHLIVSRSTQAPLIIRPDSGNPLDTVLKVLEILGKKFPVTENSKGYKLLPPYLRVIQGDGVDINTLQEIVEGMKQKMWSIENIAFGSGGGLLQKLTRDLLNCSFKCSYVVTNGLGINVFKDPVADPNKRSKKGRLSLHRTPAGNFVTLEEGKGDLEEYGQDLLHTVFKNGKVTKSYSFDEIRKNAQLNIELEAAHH
# Protocol: Time-Resolved Fluorescence Resonance Energy Transfer (TR-FRET) Binding Assay of NAMPT
# Condition Parameters: without substrates; 6.8 nM NAMPT, 200 nM probe, 3 hours equilibration
Measured Attribute: pIC50
One number for each entry, as −log10 of the molar value.

Some molecules with recorded pIC50:
• O=C(NCc1ccn2ccnc2c1)Nc1ccc(O[C@@H]2CCN(C(=O)C3CC3)C2)cc1 = 6.42
• Cc1cc(CC(=O)N(CC2CCCO2)c2ncc(C(=O)NCc3ccc4nccn4c3)s2)on1 (stereo not shown) = 6.26
• O=C(NCc1ccc2nccn2c1)c1cnc(N(CC2CCOCC2)C(=O)C2CCOC2)s1 (stereo not shown) = 5.06
• CC(C)(O)Cn1cc(-c2ncc(C(=O)NCc3ccn4ccnc4c3)s2)cn1 = 5.32
• O=C(Nc1ccc(C(=O)NCCN2CCCC2=O)cc1)Nc1ccc2nccn2c1 = 5.75

Count: 7. Required value per item: pIC50.
1. Cc1ccsc1C(=O)N1CCC(c2ccc(C(=O)NCc3ccn4ccnc4c3)s2)C1 (stereo not shown)
2. Cc1ccccc1C(=O)N1CCC(c2ccc(C(=O)NCc3ccn4ccnc4c3)s2)C1 (stereo not shown)
3. Cn1cc(C(=O)N2CCC(c3ccc(C(=O)NCc4ccn5ccnc5c4)cc3)CC2)cn1
4. CCC(C)(C)C(=O)N1CCC(c2ccc(C(=O)NCc3ccn4ccnc4c3)cc2)CC1
5. CCCC(=O)Nc1ccc(NC(=O)Nc2ccc3nccn3c2)cc1
6. O=C(NCc1ccn2ccnc2c1)c1cnc(C2CCN(c3ccccc3)CC2)s1
7. CC(C)(C)OC(=O)N1CCC(c2ccc(C(=O)NCc3cn4ccnc4cn3)cc2)CC1

1: 7.64; 2: 7.54; 3: 6.48; 4: 6.98; 5: 6.40; 6: 5.95; 7: 7.39

Count: 8. Required value per item: pIC50.
1. CC1CC1C(=O)N1CC(c2ccc(C(=O)NCc3ccn4ccnc4c3)cc2)C1 (stereo not shown)
2. CC[C@H](C)C(=O)N1CCC(c2ccc(C(=O)NCc3ccn4ccnc4c3)cc2)C1 (stereo partly shown)
3. O=C(CCC1CCCO1)Nc1ccc(C(=O)NCc2ccn3ccnc3c2)cc1 (stereo not shown)
4. O=C(NCc1ccc2nccn2c1)c1cnc(N2CCc3ccccc3CC2)s1
5. O=C(NCc1ccc2nccn2c1)c1cnc(N(C[C@@H]2CCCO2)C(=O)C2CCOCC2)s1
6. O=C(NCCCCC1CCN(C(=O)C2CCOC2)CC1)Nc1ccc2nccn2c1 (stereo not shown)
7. CC(C)Cn1cc(-c2ccc(C(=O)NCc3ccn4ncnc4c3)s2)cn1
8. O=C(NCc1ccn2ccnc2c1)c1cnc(C2CCN(c3ccccn3)CC2)s1

1. 6.15
2. 6.22
3. 6.33
4. 5.39
5. 5.21
6. 6.07
7. 7.62
8. 6.13

Count: 2. Required value per item: pIC50.
1. CC[C@H](C)C(=O)N1CC(c2ccc(NC(=O)NCc3ccn4ccnc4c3)cc2)C1
2. O=C(NCc1ccn2ccnc2c1)c1ccc(C2CN(C(=O)CC3CCCC3)C2)cc1

[6.82, 6.64]

All figures here come from patent US9187472B2.
